Target: T1, human CD3e (T-cell surface glycoprotein CD3 epsilon chain) (human, UniProt P07766 23-207)
T1 construct: Target of the anti-hCD3e antibodies on human PBMC, Jurkat cells and cells expressing human CD3e; on T cells it is part of the CD3/TCR complex; also called hCD3e; CD3e on human PBMC
Assay: flow cytometry, human PBMC, antibody 1 µg/mL, anti-human IgG Fc-Alexa Fluor647 (1:500), anti-hTcRβ-PerCP (1:30)
Measured upper left quadrant, percent of cells AF647+ / hTcRβ-PerCP- accompanies every entry in the list below.
metricName: upper left quadrant, percent of cells AF647+ / hTcRβ-PerCP-

• 1B1-H3K3-IgG1-LALA (antibody, V domains shown, Humanized; human IgG1 with LALA mutations; also called H3K3 (humanized 1B1)) VH: QVQLVQSGAEVKKPGASVKLSCKASGYTFTSYWMHWVRQRHGQGLEWIGNIYPDSGTTNYGEKFKTRVTLTVDTSTSTAYMELSSLRSEDTAVYYCTRDTSGQYYFDYWGQGTLVTVSS VL: DIVMTQSPDSLAVSAGERVTMNCKSSQSLLNSRTRKNYLAWYQHKPGQSPKLLIYWASTRESGVPDRFSGSGSGTDFTLTISSVQAEDVAVYYCVQSFSLRAFGGGTKLEIK = 11.6%
• 1B1-H1K2-IgG1-LALA (antibody, V domains shown, Humanized; human IgG1 with LALA mutations; also called H1K2 (humanized 1B1)) VH: QVQLVQSGAEVKKPGASVKVSCKASGYTFTSYWMHWVRQAPGQGLEWIGNIYPDSGTTNYGEKFKTRVTLTVDTSTSTAYMELSSLRSEDTAVYYCTRDTSGQYYFDYWGQGTLVTVSS VL: DIVMTQSPDSLAVSAGERVTMNCKSSQSLLNSRTRKNYLAWYQHKPGQSPKLLIYWASTRESGVPDRFSGSGSGTDFTLTISSLQAEDVAVYYCVQSFSLRAFGGGTKVEIK = 9.83%
• 1B1-H4K2-IgG1-LALA (antibody, V domains shown, Humanized; human IgG1 with LALA mutations; also called H4K2 (humanized 1B1)) VH: QVQLVQSGAEVVKPGASVKLSCKASGYTFTSYWMHWVRQRHGQGLEWIGNIYPDSGTTNYGEKFKTRGTLTVDTSTSTAYMELSSLRSEDTAVYYCTRDTSGQYYFDYWGQGTLVTVSS VL: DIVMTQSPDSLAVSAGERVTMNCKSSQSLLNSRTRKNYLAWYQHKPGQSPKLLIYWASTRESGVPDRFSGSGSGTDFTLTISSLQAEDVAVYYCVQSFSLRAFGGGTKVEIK = 10.4%
